Test system: JNK3 mRNA
Test: Northern assay of JNK3 mRNA levels in SH-SY5Y cells
Assay type: cell-based, human
Conditions: 200 nM oligonucleotide
e = 2'-O-(2-methoxyethyl) (MOE); d = 2'-deoxy (DNA)
Experimental endpoint: % EXPRESSION (%)

[[record]]
substance = "16696 (antisense GTTTGGCAATATATGACACA; sugars from the 5' end e6 d8 e6, all phosphorothioate, methylation of C not given here) [compound 16696]"
experimental_endpoint = "% EXPRESSION"
result_number = 55

[[record]]
substance = "16703 (antisense TCTCACTGCTGTTCACTGCT; sugars from the 5' end e6 d8 e6, all phosphorothioate, methylation of C not given here) [compound 16703]"
experimental_endpoint = "% EXPRESSION"
result_number = 30

[[record]]
substance = "16693 (antisense TATAAGAAATGGAGGCTCAT; sugars from the 5' end e6 d8 e6, all phosphorothioate, methylation of C not given here) [compound 16693]"
experimental_endpoint = "% EXPRESSION"
result_number = 40

[[record]]
substance = "16691 (antisense CTCATCTATAGGAAACGGGT; sugars from the 5' end e6 d8 e6, all phosphorothioate, methylation of C not given here) [compound 16691]"
experimental_endpoint = "% EXPRESSION"
result_number = 66

[[record]]
substance = "16706 (antisense TCACCTGCAACAACCCAGGG; sugars from the 5' end e6 d8 e6, all phosphorothioate, methylation of C not given here) [compound 16706]"
experimental_endpoint = "% EXPRESSION"
result_number = 45

[[record]]
substance = "16699 (antisense TAAATCCCTGTGAATAATTC; sugars from the 5' end e6 d8 e6, all phosphorothioate, methylation of C not given here) [compound 16699]"
experimental_endpoint = "% EXPRESSION"
result_number = 61

[[record]]
substance = "16704 (antisense GGGTCTGGTCGGTGGACATG; sugars from the 5' end e6 d8 e6, all phosphorothioate, methylation of C not given here) [compound 16704]"
experimental_endpoint = "% EXPRESSION"
result_number = 36

[[record]]
substance = "16697 (antisense CTGTCAAGGACAGCATCATA; sugars from the 5' end e6 d8 e6, all phosphorothioate, methylation of C not given here) [compound 16697]"
experimental_endpoint = "% EXPRESSION"
result_number = 54

[[record]]
substance = "16690 (antisense TTCAACAGTTTCTTGCATAA; sugars from the 5' end e6 d8 e6, all phosphorothioate, methylation of C not given here) [compound 16690]"
experimental_endpoint = "% EXPRESSION"
result_number = 60

